Entry source: PubChem BioAssay (EPA / NIEHS)

Target or test system: human Matrix Metalloproteinase-2 (MMP2), MMP2 (gene 4313) (UniProt P08253)
Sequence (P08253 whole entry, looked up): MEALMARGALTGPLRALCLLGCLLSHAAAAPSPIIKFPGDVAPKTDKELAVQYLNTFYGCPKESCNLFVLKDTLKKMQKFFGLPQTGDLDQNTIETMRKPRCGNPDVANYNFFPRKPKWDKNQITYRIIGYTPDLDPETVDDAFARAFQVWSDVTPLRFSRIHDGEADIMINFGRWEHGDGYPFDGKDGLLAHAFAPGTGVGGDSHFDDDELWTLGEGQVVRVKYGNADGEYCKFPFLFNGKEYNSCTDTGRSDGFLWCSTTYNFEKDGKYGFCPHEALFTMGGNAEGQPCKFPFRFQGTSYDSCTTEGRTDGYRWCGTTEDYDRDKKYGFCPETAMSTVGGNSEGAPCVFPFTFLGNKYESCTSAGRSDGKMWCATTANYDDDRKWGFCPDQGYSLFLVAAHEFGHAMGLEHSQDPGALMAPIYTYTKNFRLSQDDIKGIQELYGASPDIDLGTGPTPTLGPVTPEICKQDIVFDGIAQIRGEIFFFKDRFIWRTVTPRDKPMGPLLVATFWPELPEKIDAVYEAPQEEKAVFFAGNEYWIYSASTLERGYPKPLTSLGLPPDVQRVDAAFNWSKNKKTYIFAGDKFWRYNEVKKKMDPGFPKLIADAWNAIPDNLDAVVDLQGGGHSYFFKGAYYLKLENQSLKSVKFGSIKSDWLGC
Assay text: NVS_ENZ_hMMP2: NovaScreen (NVS) Enzymatic Assay for human Matrix Metalloproteinase-2 (MMP2) (AID 2283184)
Inconclusive results are not listed. Active and inactive are the calls of the source. The calls were made as follows: active = hit-call score of the fitted dose curve at least 0.9, where 1 is the maximum; inconclusive = response in the unintended direction; inactive = score below 0.9.
Outcomes: active, inactive

# Molecule, Label value
measured = [
    ("Cc1nc(-c2ccc3c(c2)CCN(CCC2CCC(NC(=O)/C=C/c4ccc(F)cc4)CC2)CC3)no1 (centres undefined)", "active"),
    ("COCCOC[C@H](CC1(C(=O)NC2CCC(C(=O)O)CC2)CCCC1)C(=O)Oc1ccc2c(c1)CCC2 (some centres undefined)", "active"),
    ("CCCc1cc(=O)[nH]c(=S)[nH]1", "inactive"),
    ("Cc1nc(C)nc(N2C[C@@H](C)N(c3ccnc([C@@H](C)O)n3)[C@@H](C)C2)n1", "active"),
]
